assay: LC/MS of blood plasma sample: time from blood collection to centrifugation (Table D); type: physicochemical, human; conditions: detection intensity, blood collection to centrifugation, after 4 hours vs 15 minutes
MEASURED_ATTRIBUTE: Increase or decrease

INSERT INTO results (compound, measured_attribute, result) VALUES
  ('Nc1ncnc2c1ncn2[C@@H]1O[C@H](COP(=O)(O)O)[C@@H](O)[C@H]1O [Adenosine monophosphate]', 'Increase or decrease', 'Increase'),
  ('Nc1ncnc2c1ncn2[C@@H]1O[C@H](CSCC[C@H](N)C(=O)O)[C@@H](O)[C@H]1O', 'Increase or decrease', 'Decrease'),
  ('NC(=O)NC1NC(=O)NC1=O (centres unmarked)', 'Increase or decrease', 'Decrease'),
  ('OC[C@H]1O[C@@H](n2cnc3c(O)ncnc32)[C@H](O)[C@@H]1O', 'Increase or decrease', 'Increase');

----------
test: LC/MS of serum sample: number of times of freezing and thawing (Table M); format: physicochemical, human; details: serum sample, LC/MS; detection intensity vs 2 times of freezing and thawing
MEASURED_ATTRIBUTE: Increase or decrease

INSERT INTO results (molecule, result) VALUES
  ('Nc1nc2c(ncn2[C@@H]2O[C@H](CO)[C@@H](O)[C@H]2O)c(=O)[nH]1 [Guanosine]', 'Decrease'),
  ('C[S+]([O-])CC[C@H](N)C(=O)O (some centres unmarked) [Methionine sulfoxide]', 'Increase'),
  ('N[C@@H](CCC(=O)O)C(=O)O [Glutamic acid]', 'Decrease'),
  ('C[C@H](CCC(=O)O)[C@H]1CC[C@H]2[C@@H]3[C@H](O)C[C@@H]4C[C@H](O)CC[C@]4(C)[C@H]3C[C@H](O)[C@]12C [Cholic acid]', 'Decrease'),
  ('Nc1ccn([C@@H]2O[C@H](CO)[C@@H](O)[C@H]2O)c(=O)n1 [Cytidine]', 'Increase'),
  ('Nc1nc2c(ncn2[C@@H]2O[C@@H]3COP(=O)(O)O[C@H]3[C@H]2O)c(=O)[nH]1 [Guanosine 3′,5′-cyclic monophosphate, guanosine 3′,5′-cyclic monophosphate]', 'Increase'),
  ('N[C@@H](CSSC[C@H](N)C(=O)O)C(=O)O [Cystine]', 'Increase'),
  ('O=C(O)CC(O)C(=O)O (centres unmarked) [Malic acid]', 'Decrease'),
  ('N[C@@H](Cc1c[nH]cn1)C(=O)O [Histidine]', 'Decrease'),
  ('Nc1ncnc2c1ncn2[C@@H]1O[C@H](CO)[C@@H](O)[C@H]1O [Adenosine]', 'Decrease'),
  ('CC(C)C[C@H](N)C(=O)O [Leucine]', 'Decrease'),
  ('Nc1ncnc2nc[nH]c12 [Adenine]', 'Decrease'),
  ('N[C@@H](Cc1c[nH]c2ccccc12)C(=O)O [Tryptophan]', 'Decrease'),
  ('CN=C(NC)NCCC[C@H](N)C(=O)O [Symmetric dimethylarginine]', 'Decrease'),
  ('O=C(O)CCC(=O)O [Succinic acid]', 'Increase'),
  ('O=c1[nH]c(=O)c2[nH]c(=O)[nH]c2[nH]1 [Uric acid]', 'Decrease'),
  ('N[C@@H](CC(=O)O)C(=O)O [Aspartic acid]', 'Decrease');

----------
The entries below are paired with their reported Rate of increase or decrease.
test: GC/MS of serum sample: time from centrifugation to isolation (Table H); type: physicochemical, human; parameters: key: detection intensity relative to 1 at 30 min centrifugation-to-isolation; conditions: detection intensity relative to 1 at 30 minutes, after 1 hour
MEASURED_ATTRIBUTE: Rate of increase or decrease

INSERT INTO measurements (compound, numeric_result) VALUES
  ('O=C(O)C=C(CC(=O)O)C(=O)O', 0.04),
  ('CCCCCCCCCCCCCCCCO', 1.36),
  ('O=C(O)C(O)Cc1ccc(O)cc1 (stereo not shown) [4-Hydroxyphenyllactic acid]', 0.64),
  ('O=C[C@H](O)[C@@H](O)[C@@H](O)[C@H](O)C(=O)O', 1.87),
  ('O[C@@H]1[C@@H](O)[C@@H]2OC[C@@H](O2)[C@H]1O [1,6-Anhydroglucose]', 2.25),
  ('OB(O)O', 2.06),
  ('O=C(O)[C@@H]1CC(O)CN1 (stereo partly shown) [4-Hydroxyproline]', 1.33),
  ('OC[C@H]1O[C@@](CO)(O[C@H]2O[C@H](CO)[C@@H](O)[C@H](O)[C@H]2O)[C@@H](O)[C@@H]1O', 2.12),
  ('O=C(O)c1ccccc1', 0.69),
  ('CC(=O)N[C@@H](CO)C(=O)O', 1.69);

----------
test: GC/MS of serum sample: number of times of freezing and thawing (Table I); type: physicochemical, human; settings: serum sample, GC/MS; detection intensity vs 2 times of freezing and thawing
MEASURED_ATTRIBUTE: Increase or decrease

INSERT INTO measurements (molecule, result) VALUES
  ('CCCCCCCCCCCCCCCCC(=O)O [Margaric acid, margaric acid]', 'Increase'),
  ('CCCCCC(=O)O [Cabroic acid]', 'Increase'),
  ('CCCCCCCCC(=O)O [Pelargonic acid, pelargonic acid]', 'Decrease'),
  ('OC[C@H]1O[C@@](CO)(O[C@H]2O[C@H](CO)[C@@H](O)[C@H](O)[C@H]2O)[C@@H](O)[C@@H]1O [Sucrose]', 'Decrease');

----------
assay: LC/MS of blood plasma sample: time from blood collection to centrifugation (Table D); assay type: physicochemical, human; details: different from individual to individual, individuals with decrease, relative to 1 at 15 minutes, collection to centrifugation, after 12 hours
The entries below are paired with their reported Rate of increase or decrease (second value, decrease).
MEASURED_ATTRIBUTE: Rate of increase or decrease (second value, decrease)

INSERT INTO measurements (compound, numeric_result) VALUES
  ('O=C(O)[C@@H]1CC(O)CN1 (stereo partly drawn) [4-Hydroxyproline]', 0.69),
  ('C[C@H](N)C(=O)O [Alanine]', 0.64),
  ('O=c1ccn([C@@H]2O[C@H](CO)[C@@H](O)[C@H]2O)c(=O)[nH]1 [Uridine]', 0.60),
  ('CC[C@H](C)[C@H](N)C(=O)O [Isoleucine]', 0.65),
  ('C[S+]([O-])CC[C@H](N)C(=O)O (stereo partly drawn) [Methionine sulfoxide]', 0.54),
  ('CN(CC(=O)O)C(=N)N [Creatine]', 0.66);

----------
The entries below are paired with their reported Rate of increase or decrease.
test: GC/MS of blood plasma sample: time from blood collection to centrifugation (Table A); assay type: physicochemical, human; details: detection intensity relative to 1 at 15 minutes, blood collection to centrifugation, after 4 hours
MEASURED_ATTRIBUTE: Rate of increase or decrease

INSERT INTO assay_data (compound, result) VALUES
  ('Nc1cc[nH]c(=O)n1 [Cytosine]', 1.50),
  ('O=C(O)CCCCCCCC(=O)O [Azelaic acid]', 2.03),
  ('CS(=O)(=O)CC[C@H](N)C(=O)O [Methionine sulfone]', 4.98),
  ('O=C(O)[C@H](O)[C@H](O)[C@H](O)CO [Ribonic acid]', 0.17),
  ('CCCCCCCCCCCCCCCCO [1-Hexadecanol (cetanol), 1-Hexadecanol]', 0.60),
  ('NCCc1c[nH]cn1 [Histamine]', 1.78),
  ('O=C1O[C@H]([C@@H](O)CO)C(O)=C1O [Ascorbic acid]', 1.77),
  ('CCCCCCCCCCCCCCCCCCO [Octadecanol]', 1.62),
  ('CCCCC/C=C\C/C=C\C/C=C\C/C=C\CCCC(=O)O [Arachidonic acid]', 1.56),
  ('O=C(CO)[C@H](O)[C@H](O)[C@H](O)CO [Psicose]', 4.33),
  ('O[C@@H]1[C@@H](O)[C@@H]2OC[C@@H](O2)[C@H]1O [1,6-Anhydroglucose]', 1.42);

----------
The entries below are paired with their reported Rate of increase or decrease (first value, increase).
assay: GC/MS of blood plasma sample: number of times of freezing and thawing (Table C); type: physicochemical, human; details: different from individual to individual, individuals with increase, relative to 1 at 2 times, freezing and thawing 4 times
MEASURED_ATTRIBUTE: Rate of increase or decrease (first value, increase)

INSERT INTO results (compound, numeric_result) VALUES
  ('Oc1ccccn1 [2-Hydroxypyridine]', 2.48),
  ('O=C(O)c1cccnc1C(=O)O', 1.70),
  ('O=C(CO)[C@H](O)[C@H](O)[C@H](O)CO', 1.77),
  ('N[C@@H](CS(=O)O)C(=O)O', 1.59),
  ('O=C(O)CCCCCCCC(=O)O', 1.45),
  ('O[C@@H]1[C@@H](O)[C@@H]2OC[C@@H](O2)[C@H]1O [1,6-Anhydroglucose]', 3.49),
  ('Oc1ccc(O)cc1 [Hydroquinone]', 3.54);
